Target: Wild-type RET kinase (Homo sapiens, UniProt P07949)
Sequence (P07949 29-1114): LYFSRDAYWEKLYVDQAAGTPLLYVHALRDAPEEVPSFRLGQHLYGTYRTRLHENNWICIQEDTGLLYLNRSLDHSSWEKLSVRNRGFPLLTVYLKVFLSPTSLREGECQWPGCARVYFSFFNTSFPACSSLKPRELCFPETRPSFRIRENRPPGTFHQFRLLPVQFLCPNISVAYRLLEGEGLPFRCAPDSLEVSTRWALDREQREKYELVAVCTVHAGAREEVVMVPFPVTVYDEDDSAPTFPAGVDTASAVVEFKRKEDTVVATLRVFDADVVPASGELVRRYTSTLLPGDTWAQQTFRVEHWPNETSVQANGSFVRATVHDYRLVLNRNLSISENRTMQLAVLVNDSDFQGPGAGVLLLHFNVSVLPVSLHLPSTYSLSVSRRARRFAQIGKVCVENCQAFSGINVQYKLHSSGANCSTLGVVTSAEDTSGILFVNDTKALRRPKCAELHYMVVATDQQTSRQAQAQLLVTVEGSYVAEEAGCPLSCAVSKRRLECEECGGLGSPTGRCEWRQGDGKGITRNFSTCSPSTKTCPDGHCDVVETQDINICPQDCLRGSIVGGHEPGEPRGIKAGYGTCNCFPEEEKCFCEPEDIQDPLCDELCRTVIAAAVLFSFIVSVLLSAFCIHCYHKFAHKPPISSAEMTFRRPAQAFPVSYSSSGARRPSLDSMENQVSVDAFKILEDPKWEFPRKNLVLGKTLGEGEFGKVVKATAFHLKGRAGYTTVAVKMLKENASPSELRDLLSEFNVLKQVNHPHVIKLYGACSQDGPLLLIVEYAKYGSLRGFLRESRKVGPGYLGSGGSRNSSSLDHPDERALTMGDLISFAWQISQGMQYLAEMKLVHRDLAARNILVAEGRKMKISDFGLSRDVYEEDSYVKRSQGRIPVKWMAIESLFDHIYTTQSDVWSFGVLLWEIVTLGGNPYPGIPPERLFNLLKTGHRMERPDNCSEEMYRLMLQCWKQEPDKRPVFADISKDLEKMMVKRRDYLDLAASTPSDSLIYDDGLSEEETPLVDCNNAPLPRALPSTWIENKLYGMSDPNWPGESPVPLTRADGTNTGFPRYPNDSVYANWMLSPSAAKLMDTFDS
Experiment: HTRF method for testing the inhibitory activity of compounds against RET
Type: biochemical
Details: HTRF; read-out: Wild-type RET kinase
pIC50: −log10 of the molar value.
readout_type: pIC50

P = COc1ccc(CN2C3CC2CN(c2cnc(-c4cc(NCC5CC5)cn5ncc(C#N)c45)cn2)C3)cn1
Q = COc1ccc(CN2C3CC2CN(c2cnc(-c4cc(OCCN5CC6CCC5C6)cn5ncc(C#N)c45)cn2)C3)cn1 (stereo not shown)
Query :: Larger number for pIC50: P , or Q ? // caller expects the label of the chosen entry
Result :: Q

###

Recorded IC50, one value per entry.
Molecular target: VEGFR2 kinase (Homo sapiens)
Sequence (P35968 20-1356): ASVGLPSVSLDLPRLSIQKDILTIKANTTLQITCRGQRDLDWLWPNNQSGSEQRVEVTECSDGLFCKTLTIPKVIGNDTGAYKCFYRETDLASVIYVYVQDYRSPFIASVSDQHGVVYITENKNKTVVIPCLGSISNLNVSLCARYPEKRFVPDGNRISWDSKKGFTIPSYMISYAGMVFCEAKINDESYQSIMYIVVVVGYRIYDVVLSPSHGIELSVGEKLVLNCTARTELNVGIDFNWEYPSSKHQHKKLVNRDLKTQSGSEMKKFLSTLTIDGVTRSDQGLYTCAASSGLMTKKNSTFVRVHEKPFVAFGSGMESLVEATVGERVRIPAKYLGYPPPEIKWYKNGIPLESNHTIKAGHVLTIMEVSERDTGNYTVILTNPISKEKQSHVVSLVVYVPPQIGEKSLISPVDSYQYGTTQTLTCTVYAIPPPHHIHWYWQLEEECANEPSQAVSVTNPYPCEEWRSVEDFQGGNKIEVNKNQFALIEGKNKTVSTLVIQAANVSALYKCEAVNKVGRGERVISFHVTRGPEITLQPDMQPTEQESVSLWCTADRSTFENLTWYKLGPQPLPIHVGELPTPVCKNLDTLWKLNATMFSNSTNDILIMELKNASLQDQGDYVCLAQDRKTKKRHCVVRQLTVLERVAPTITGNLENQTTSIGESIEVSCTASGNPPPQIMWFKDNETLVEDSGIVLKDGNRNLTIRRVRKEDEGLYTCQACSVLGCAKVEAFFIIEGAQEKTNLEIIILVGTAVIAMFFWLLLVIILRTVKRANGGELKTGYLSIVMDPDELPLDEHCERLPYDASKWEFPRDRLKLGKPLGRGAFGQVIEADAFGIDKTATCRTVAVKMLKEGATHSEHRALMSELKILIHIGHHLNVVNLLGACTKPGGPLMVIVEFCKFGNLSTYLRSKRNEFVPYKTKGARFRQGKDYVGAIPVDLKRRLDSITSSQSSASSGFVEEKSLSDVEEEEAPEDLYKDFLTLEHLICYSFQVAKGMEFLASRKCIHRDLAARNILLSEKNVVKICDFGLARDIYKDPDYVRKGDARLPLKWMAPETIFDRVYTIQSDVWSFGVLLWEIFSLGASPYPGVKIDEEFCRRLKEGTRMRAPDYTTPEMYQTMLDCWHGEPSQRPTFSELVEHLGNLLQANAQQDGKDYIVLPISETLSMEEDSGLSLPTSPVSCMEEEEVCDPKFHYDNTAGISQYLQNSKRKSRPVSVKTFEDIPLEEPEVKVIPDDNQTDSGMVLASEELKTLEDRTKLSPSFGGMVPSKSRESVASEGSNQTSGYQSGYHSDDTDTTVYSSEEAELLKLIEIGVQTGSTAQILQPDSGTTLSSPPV
Kindly provide the numeric value in nM only, without the unit symbol.

>>> recorded_measurement("COc1ccc(CN2C3CC2CN(c2ccc(-c4cc(NCC(F)(F)F)cn5ncc(C#N)c45)cn2)C3)cn1 [Compound 56]")
103

Query :: API: value(readout= IC50, system= VEGFR2 kinase (Homo sapiens), query= CNc1cc(-c2ccc(N3CC4CC(C3)N4Cc3ccc(OC)nc3)nc2)c2c(C#N)cnn2c1 [Compound 47] )
Result :: 33.7

Query :: API: value(readout= IC50, system= VEGFR2 kinase (Homo sapiens), query= COc1ccc(CN2C3CC2CN(c2ccc(-c4cc(NCC(F)F)cn5ncc(C#N)c45)cn2)C3)cn1 [Compound 50] )
Result :: 59.3

Query :: API: value(readout= IC50, system= VEGFR2 kinase (Homo sapiens), query= COc1ccc(CN2C3CC2CN(c2ccc(-c4cc(NC(C)C)cn5ncc(C#N)c45)cn2)C3)cn1 [Compound 69] )
Result :: 42.2

Query :: API: value(readout= IC50, system= VEGFR2 kinase (Homo sapiens), query= CCNc1cc(-c2cnc(N3CC4CC(C3)N4Cc3ccc(OC)nc3)cn2)c2c(C#N)cnn2c1 [Compound 29] )
Result :: 56

Query :: API: value(readout= IC50, system= VEGFR2 kinase (Homo sapiens), query= COc1ccc(CN2C3CC2CN(c2cnc(-c4cc(OCCN5CC6(COC6)C5)cn5ncc(C#N)c45)cn2)C3)cn1 [Compound 36] )
Result :: 454

Query :: API: value(readout= IC50, system= VEGFR2 kinase (Homo sapiens), query= CCNc1cc(-c2ccc(N3CC4CC(C3)N4Cc3ccc(OC)nc3)nc2)c2c(C#N)cnn2c1 [Compound 62] )
Result :: 20
